# ASSAY EXPLANATION: Murine cytotoxicity by MTT method
# Assay type: cell-based
# DETAILS: mouse; murine peritoneal macrophages, MTT; read-out: murine macrophage CC50 ± SD
# Procedure: Murine cytotoxicity was assessed by the 3-(4,5-dimethylthiazol-2-yl)-2,5-diphenyltetrazolium bromide (MTT) method using murine peritoneal macrophages to determine the CC50. […] The percentage of viable cells was calculated considering the cell culture control (medium + cells + DMSO = 0.6% v/v).
PARAMETER: log10(CC50) (log10 of the value in µM)
The common logarithm of CC50 in µM is what is listed.

Any idea what log10(CC50) was measured for O=C(c1ccccc1)c1cn(CC(O)Cn2cc(C(=O)c3ccccc3)nn2)nn1 ?
2.58

Repeat with O=[N+]([O-])c1ccc(-c2cn(CC(O)Cn3cc(-c4ccc([N+](=O)[O-])cc4)nn3)nn2)cc1
2.48

// query: C[C@@H]1[C@H](O)[C@@H](C)/C=C/C=C/C=C/C=C/C=C/C=C/C=C/[C@H](O[C@@H]2O[C@H](C)[C@@H](O)[C@H](N)[C@@H]2O)C[C@@H]2O[C@](O)(C[C@@H](O)C[C@@H](O)[C@H](O)CC[C@@H](O)C[C@@H](O)CC(=O)O[C@H]1C)C[C@H](O)[C@H]2C(=O)O [amph B, amphotericin B, reference compound]
1.43

Ok, now Cc1ccc(-c2cn(CC(O)Cn3cc(-c4ccc(C)cc4)nn3)nn2)cc1
2.45

Input OC(Cn1cc(C(=NNc2nc3ccccc3s2)c2ccccc2)nn1)Cn1cc(C(=NNc2nc3ccccc3s2)c2ccccc2)nn1 (stereo not shown) [12c]
1.71

Would you kindly repeat that for OC(Cn1cc(C(O)c2ccccc2)nn1)Cn1cc(C(O)c2ccccc2)nn1 (stereo not shown) ?
2.16

Another molecule to look at: OC(c1ccccc1)c1cn(Cc2ccccc2)nn1 (stereo not shown)
2.51
